# Test system: PPARg:RXRa 270nM:90nM, anti-RXR (NR concentration 270 nM, RXRa partner concentration 90 nM)
# test.details: PBM binding z-score (relative to random genomic background probes); higher = stronger binding; sequences stand for … in GC…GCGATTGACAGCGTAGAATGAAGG
Tag: label 1 if measured PBM binding z-score is not below 0.9, label 0 if it is.

Below, 10 sequences whose answers are already recorded.
{"columns": ["polymer.sequence", "discrete.label"],
 "data": [
  ["GCTTACGGATCAAAGGTTATAGCATGAATAGAAT", "label 1"],
  ["ATCTCTAGGTAACAAGTTCAGTGATAGAGAGGAC", "label 1"],
  ["TTATATAGGTAAACAGGTGAAAGTCCGTAAGTTA", "label 1"],
  ["ACTAGCAGGCCAAGTTTGGGTCACTTAAACAAAG", "label 0"],
  ["CGTCCAAGGCCAAAGGTCAGTGAAGAGATGACGG", "label 1"],
  ["ACAGACAGGTGACGAAGGTAACTCAGGCTATCAT", "label 0"],
  ["ACTATTAGTTGACTTAGGGCATCCGATACGACGC", "label 0"],
  ["ATACCAAGGTGATCGTGAGGTCGGTGATACTAAC", "label 0"],
  ["TCTTGTAGATCAAAGGTAAAGAAAGCCGAAGCCT", "label 1"],
  ["CGTCCTAGGTCAAAGGTCAGTGAAGAGATGACGG", "label 1"]
]}

Item `CCTACTGGGCCACGACAGGTCATTGATTCAGTGA` with PBM binding z-score of 0.9 or above? label 1

Item `AATACAGGGTCATCGTAGACCAGAGTACGCACAG` with PBM binding z-score of 0.9 or above? label 1

Item `ACTAGCAGGCCAAGGGTCACTCTAGATTAGTCCG` with PBM binding z-score of 0.9 or above? label 1

Item `GGAACGAGGGCAAGTTAATAGCAGAGTTTGATGG` with PBM binding z-score of 0.9 or above? label 0

Item `GCTAGCAGGCCATTTGGGACACTCAATGACGGGC` with PBM binding z-score of 0.9 or above? label 0

Item `GGAACGAGGGGAAAGTTGATAGCATCTGTCGACG` with PBM binding z-score of 0.9 or above? label 1

---

# System: RARa homodimer (NR concentration 270 nM)
# test.details: PBM binding z-score (relative to random genomic background probes); higher = stronger binding; sequences stand for … in GC…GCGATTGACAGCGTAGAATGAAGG
// classify(record): look up PBM binding z-score in ranges low end: < 0.06; middle: ≥ 0.06 and < 0.5; high end: ≥ 0.5

Place this sequence in its band: `CGAACGAGGGCATGAGTTGATCGCAAATGCCGAT` low end

Place this sequence in its band: `ATCTCTAGGTAACAAGTTAAGTGAAAGAGAGGAC` high end

---

# System: RARg:RXRa (NR concentration 270 nM, RXRa partner concentration 90 nM)
# test.details: PBM binding z-score (relative to random genomic background probes); higher = stronger binding; sequences stand for … in GC…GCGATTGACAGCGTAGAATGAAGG
// classify(record): look up PBM binding z-score in ranges lower bin: < 2; middle bin: ≥ 2 and < 3; upper bin: ≥ 3

{"columns": ["polymer.sequence", "experimental.target", "discrete.label"],
 "data": [
  ["ATCTCTAGGTAAAAGTTCAGTGTATCCCGAGGAT", "RARg:RXRa (NR concentration 270 nM, RXRa partner concentration 90 nM)", "lower bin"],
  ["TCATATAGGTAAAAGGTGAAATTCGGTGTGGTAA", "RARg:RXRa (NR concentration 270 nM, RXRa partner concentration 90 nM)", "lower bin"],
  ["TAGCCTAGGTCATTCAGGGGCCTGTATAGAAAGC", "RARg:RXRa (NR concentration 270 nM, RXRa partner concentration 90 nM)", "upper bin"],
  ["ACTATTAGTTGAGACAAGGGCAACCGATAGGTTG", "RARg:RXRa (NR concentration 270 nM, RXRa partner concentration 90 nM)", "lower bin"],
  ["ATCGAAAGGTCGTGAGTTGAGTATACAGAAAGGC", "RARg:RXRa (NR concentration 270 nM, RXRa partner concentration 90 nM)", "upper bin"]
]}

Place this sequence in its band: `TCTCGGAGGACAGGAAAGGTCAGAGCTCGACATC` upper bin

Place this sequence in its band: `GCTGGTAGGTCAGGTTGGTCAGCTAACGGGTACG` middle bin

Place this sequence in its band: `ATCTCTAGGTAACAAGTTCAGTGAGAGAGAGGAC` lower bin

Place this sequence in its band: `TCTATTAGATGAAGGGCAACCGACGAGTCCGTTT` lower bin

---

Below, each entry is listed with its recorded PBM binding z-score.
# Tested on: RARg:RXRa (NR concentration 270 nM, RXRa partner concentration 90 nM)
# test.details: PBM binding z-score (relative to random genomic background probes); higher = stronger binding; sequences stand for … in GC…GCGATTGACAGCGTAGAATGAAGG

Examples with answers:
{"columns": ["polymer.sequence", "PBM binding z-score"],
 "data": [
  ["CGAACTAGGTCAGAACATGACAGTGAAGGATGAT", 2.34],
  ["AAAATGAGGTTATTAAGATCAGGGAATTGCGGTC", 1.16],
  ["TTGCCAAGGTGAAGGTCGTTGATCCCTCTGTAGA", 1.23],
  ["TAGCCTAGGTCAGATCGGGCCAGTAGACGCTATA", 2.74],
  ["CCAACTAGGTCAGAACAGGACAGTGAAGGATGAT", 2.41]
]}

Hi! What's the reported PBM binding z-score for `CCGACTGCGGCATAAGGTTACCATAAGCCAGCCC` on RARg:RXRa (NR concentration 270 nM, RXRa partner concentration 90 nM)? 0.306

Hi! What's the reported PBM binding z-score for `AATACAGGGTCATTGTAGGCCAGAGTACGCACAG` on RARg:RXRa (NR concentration 270 nM, RXRa partner concentration 90 nM)? 5.16

Hi! What's the reported PBM binding z-score for `CTCGAAAGGTCGTGCTCAGGTGAGTATTCCAAAC` on RARg:RXRa (NR concentration 270 nM, RXRa partner concentration 90 nM)? 5.04

Hi! What's the reported PBM binding z-score for `ATTGAAAGGTCGACGAGGTGAGTATACACCGTTT` on RARg:RXRa (NR concentration 270 nM, RXRa partner concentration 90 nM)? 4.19

Hi! What's the reported PBM binding z-score for `ACTCACGGGTCAACGAGGTTATAGCACGCGTATA` on RARg:RXRa (NR concentration 270 nM, RXRa partner concentration 90 nM)? 5.72

Hi! What's the reported PBM binding z-score for `CTCGAAAGGTCGTGCTCAGGTTAGTATACCAAAC` on RARg:RXRa (NR concentration 270 nM, RXRa partner concentration 90 nM)? 5.5

Hi! What's the reported PBM binding z-score for `TTACCAAGGTGAAGGTCGTAGATCCCTCTGTAGA` on RARg:RXRa (NR concentration 270 nM, RXRa partner concentration 90 nM)? 1.13

Hi! What's the reported PBM binding z-score for `TAGCCTAGATCATTGGGCCAGTATAGTACGCATC` on RARg:RXRa (NR concentration 270 nM, RXRa partner concentration 90 nM)? -0.554

Hi! What's the reported PBM binding z-score for `TCTTGTAGATCAGCAGATTAAGAAAGCTGGCCAA` on RARg:RXRa (NR concentration 270 nM, RXRa partner concentration 90 nM)? -0.275

---

# Tested on: LXRa homodimer (NR concentration 270 nM)
# test.details: PBM binding z-score (relative to random genomic background probes); higher = stronger binding; sequences stand for … in GC…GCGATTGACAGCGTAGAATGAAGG
measured.endpoint: PBM binding z-score
Please give the numeric answer without any surrounding text.

Which PBM binding z-score is listed for `TAGCCTAGGTCAGATGGGGCCAGTATACGCTATA` ? -0.0271

Which PBM binding z-score is listed for `CGAAGGAGGGCATGAGTTGATAGCAAATGCCGAT` ? -0.504

Which PBM binding z-score is listed for `ATCGCTAGGTAACAAGTTCAGTGAAAGAGAGGAC` ? -0.0365

Which PBM binding z-score is listed for `GCTGCTAGGTCAACTGATGGTCAGCAAAAGCTCG` ? 0.157

---

# Test system: PPARg:RXRa IVT, anti-PPARg (NR concentration 270 nM, RXRa partner concentration 90 nM)
# test.details: PBM binding z-score (relative to random genomic background probes); higher = stronger binding; sequences stand for … in GC…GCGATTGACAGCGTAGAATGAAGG
Tag: class 1 if measured PBM binding z-score is not below 2, class 0 if it is.

{"columns": ["polymer.sequence", "discrete.label"],
 "data": [
  ["GATACAGGGTCAAAGCCAGAGTACGCGTATTGAT", "class 1"],
  ["TCTGCTAGGTCAGTTTGTCAGCTAACGAGCTGCC", "class 1"],
  ["CAGACTAGGTCACAGAGGTCAAAGTCCGTGCGTA", "class 1"],
  ["CCTAGCAGGCCAGGGGCACTCAAGCATTTCGCTT", "class 0"],
  ["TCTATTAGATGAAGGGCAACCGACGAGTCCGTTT", "class 0"],
  ["CAAACTAGGTCACCTGAAGGTCAAAGTCCGCATG", "class 1"],
  ["TCTTGTAGATCAACAGGTGGTTAAGAAAGATCGA", "class 0"],
  ["TCGAGTAGGTTAGTCTGGGCATTCAGCCAACATA", "class 0"],
  ["TCCGACAGGTGAAGGTAACTCAGGTACGCAGTCG", "class 0"],
  ["CGAACTAGGTCATCCATGACAGTGAATACATTGA", "class 1"]
]}

Item `ACTAGCAGGCCAAGGGTTACTCAAGATTAGTCCG` with PBM binding z-score of 2 or above? class 1

Item `TAAGACAGGTGAAGGTAACTCAGGTACGCAGTCG` with PBM binding z-score of 2 or above? class 0

Item `ATCGAAAGTTCGTGAGGTGAGTATACAGAAAGGC` with PBM binding z-score of 2 or above? class 0

Item `TTACCAAGATGAGCTGAGGTCGTTGATCCAACTC` with PBM binding z-score of 2 or above? class 0
